# test.target: F508delCFTR (Homo sapiens, UniProt P13569, DEL508-508)
# Construct: expressed in transfected cells; host or cells: CFBE41o- human lung-derived epithelial cells (CFBE41o-F508delCFTR-HRP), doxycycline-inducible
# Sequence (P13569 with tags, fused parts or gaps DEL508-508): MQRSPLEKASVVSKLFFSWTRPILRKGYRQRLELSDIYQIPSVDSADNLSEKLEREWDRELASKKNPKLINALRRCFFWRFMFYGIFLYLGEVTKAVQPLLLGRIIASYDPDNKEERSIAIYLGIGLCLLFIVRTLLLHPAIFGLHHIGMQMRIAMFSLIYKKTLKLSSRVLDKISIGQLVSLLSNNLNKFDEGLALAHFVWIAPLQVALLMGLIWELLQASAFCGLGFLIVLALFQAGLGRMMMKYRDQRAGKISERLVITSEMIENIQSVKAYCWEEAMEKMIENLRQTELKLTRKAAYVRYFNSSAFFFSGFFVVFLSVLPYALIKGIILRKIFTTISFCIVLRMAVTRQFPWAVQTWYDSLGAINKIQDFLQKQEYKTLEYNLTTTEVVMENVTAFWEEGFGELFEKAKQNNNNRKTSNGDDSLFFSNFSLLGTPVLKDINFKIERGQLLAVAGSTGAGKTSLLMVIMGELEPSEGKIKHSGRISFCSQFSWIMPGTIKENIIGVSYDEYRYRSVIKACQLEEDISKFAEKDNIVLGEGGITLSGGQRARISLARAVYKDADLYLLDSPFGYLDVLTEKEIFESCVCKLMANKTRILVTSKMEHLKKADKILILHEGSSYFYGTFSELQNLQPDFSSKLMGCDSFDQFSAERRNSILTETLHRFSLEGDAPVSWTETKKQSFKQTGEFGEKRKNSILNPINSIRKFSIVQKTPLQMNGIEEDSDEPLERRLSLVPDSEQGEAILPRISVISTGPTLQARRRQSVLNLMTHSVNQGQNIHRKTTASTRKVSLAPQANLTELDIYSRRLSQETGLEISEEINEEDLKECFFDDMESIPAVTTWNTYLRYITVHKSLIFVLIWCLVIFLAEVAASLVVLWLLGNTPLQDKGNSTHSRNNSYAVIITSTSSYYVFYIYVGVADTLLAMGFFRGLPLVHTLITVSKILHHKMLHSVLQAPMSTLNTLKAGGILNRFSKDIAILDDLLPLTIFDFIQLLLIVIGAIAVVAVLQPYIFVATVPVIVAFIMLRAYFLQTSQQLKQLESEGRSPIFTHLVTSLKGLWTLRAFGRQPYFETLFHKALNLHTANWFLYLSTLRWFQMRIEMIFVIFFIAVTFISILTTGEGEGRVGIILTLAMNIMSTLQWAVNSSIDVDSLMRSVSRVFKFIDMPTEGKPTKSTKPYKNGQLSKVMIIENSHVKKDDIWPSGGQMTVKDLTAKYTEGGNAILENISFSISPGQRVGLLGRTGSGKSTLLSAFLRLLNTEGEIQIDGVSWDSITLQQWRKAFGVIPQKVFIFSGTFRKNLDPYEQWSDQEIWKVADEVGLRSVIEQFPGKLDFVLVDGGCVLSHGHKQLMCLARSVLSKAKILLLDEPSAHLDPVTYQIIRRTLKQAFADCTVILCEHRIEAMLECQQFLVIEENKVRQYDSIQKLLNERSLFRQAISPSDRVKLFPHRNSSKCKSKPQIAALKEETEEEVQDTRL
# procedure.details: Cell Surface Expression-Horse Radish Peroxidase (CSE-HRP) assay, test compound without co-corrector;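 further: percent of on-plate 2 µM positive control corrector response over DMSO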
# Assay type: cell-based
# run.parameters: maximum at any tested concentration, normalized to positive control, without co-corrector
endpoint.label: Emax

Previously resolved entries follow.
O=C(NS(=O)(=O)c1ccc(Cl)cc1)C1CCc2c(Cl)cccc21 (stereo not drawn)	< 50%
Cc1ccccc1S(=O)(=O)NC(=O)C1(C)CCc2ccccc21 (stereo not drawn)	< 50%
COc1cc2c(c(OC)c1)C(C(=O)NS(=O)(=O)c1cccc3ccccc13)CCC2 (stereo not drawn)	≥ 150%
CCC1(C(=O)NS(=O)(=O)c2ccccc2OC(F)F)CCc2c(Cl)cccc21 (stereo not drawn)	< 50%
CCC1(C(=O)NS(=O)(=O)c2cccc(Cl)c2Cl)CCc2c(Cl)cccc21 (stereo not drawn)	< 50%

### Prompt // query Emax value for entry COc1ccc(C2CCC2)c2c1C(C(=O)NS(=O)(=O)c1cccn3nccc13)CC2 (stereo not drawn)
### Response ≥ 150%

### Prompt // query Emax value for entry COc1ccc(C)c2c1C(C(=O)NS(=O)(=O)c1cccc3ccccc13)CC2 (stereo not drawn)
### Response ≥ 150%

### Prompt // query Emax value for entry Cc1ccccc1S(=O)(=O)NC(=O)C1CCc2c(C3=CCOCC3)cccc21 (stereo not drawn)
### Response < 50%

### Prompt // query Emax value for entry COc1cccc2c1CCC2C(=O)NS(=O)(=O)c1cccc(Cl)c1 (stereo not drawn)
### Response < 50%
